The entries below come with measured inhibition values attached.
Molecular target: Insulin receptor (Homo sapiens);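 also: reported values are averages of replicate inhibition measurements against the insulin receptor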
Conditions: at 0.1 µM
ASSAY METRIC: inhibition (%)

{"COMPOUND": "CCc1cccc(NC(=O)Nc2ccc(Oc3ccc4nc(NC(=O)OC)[nH]c4c3)cc2)c1", "MEASURED TARGET": "Insulin receptor (Homo sapiens)", "ENDPOINT RESULT": -2.61}
{"COMPOUND": "NC(=O)c1cccc(Nc2nccc(Nc3cccc4[nH]ncc34)n2)c1", "MEASURED TARGET": "Insulin receptor (Homo sapiens)", "ENDPOINT RESULT": -2.6}
{"COMPOUND": "COc1ccc2cc(-c3c(-c4ccncc4)nc(-c4ccc([S+](C)[O-])cc4)n3C)ccc2c1 (stereo unspecified)", "MEASURED TARGET": "Insulin receptor (Homo sapiens)", "ENDPOINT RESULT": -0.81}
{"COMPOUND": "COc1cc(C)c(NC(=O)CN(C)C)cc1Nc1nc(Nc2cccc(F)c2C(N)=O)c2cc[nH]c2n1", "MEASURED TARGET": "Insulin receptor (Homo sapiens)", "ENDPOINT RESULT": 99.9}
{"COMPOUND": "COc1ccc(COc2ccc(Cc3cnc(N)nc3N)cc2OC)cc1", "MEASURED TARGET": "Insulin receptor (Homo sapiens)", "ENDPOINT RESULT": 0.54}
{"COMPOUND": "COc1cccc(-n2ncc3c(N/N=C/c4cccc(F)c4)ncnc32)c1", "MEASURED TARGET": "Insulin receptor (Homo sapiens)", "ENDPOINT RESULT": 6.33}
{"COMPOUND": "CNC(=O)c1cncc(/C=C/c2c(Cl)cccc2Cl)c1", "MEASURED TARGET": "Insulin receptor (Homo sapiens)", "ENDPOINT RESULT": 3.59}
{"COMPOUND": "CS(=O)(=O)Nc1ccc(N/C=C2\\C(=O)Nc3ccccc32)cc1", "MEASURED TARGET": "Insulin receptor (Homo sapiens)", "ENDPOINT RESULT": -0.48}
{"COMPOUND": "CCCN1CCC=C(c2ccc(Nc3nc(Nc4ccccc4C(N)=O)c4cc[nH]c4n3)c(C)c2)C1", "MEASURED TARGET": "Insulin receptor (Homo sapiens)", "ENDPOINT RESULT": 84}
{"COMPOUND": "COc1ccc(-c2ccncc2)cc1C(N)=O", "MEASURED TARGET": "Insulin receptor (Homo sapiens)", "ENDPOINT RESULT": 9.09}
{"COMPOUND": "Cn1cc(C=C2C(=O)Nc3cccnc32)c2ccccc21", "MEASURED TARGET": "Insulin receptor (Homo sapiens)", "ENDPOINT RESULT": 3.49}
{"COMPOUND": "COc1cc2ncn(-c3cc(O[C@H](C)c4ccccc4Cl)c(C(N)=O)s3)c2cc1OC", "MEASURED TARGET": "Insulin receptor (Homo sapiens)", "ENDPOINT RESULT": 2.07}
{"COMPOUND": "COc1cc2ncn(-c3cc(O[C@@H](C)c4ccccc4Cl)c(C(N)=O)s3)c2cc1OC", "MEASURED TARGET": "Insulin receptor (Homo sapiens)", "ENDPOINT RESULT": 1.26}
{"COMPOUND": "O=C1NC(=O)C(N2CCc3ccccc32)=C1c1ccc(Cl)cc1", "MEASURED TARGET": "Insulin receptor (Homo sapiens)", "ENDPOINT RESULT": 6.09}
{"COMPOUND": "CS(=O)(=O)CCNCc1ccc(-c2ccc3ncnc(Nc4ccc(OCc5cccc(F)c5)c(C(F)(F)F)c4)c3c2)o1", "MEASURED TARGET": "Insulin receptor (Homo sapiens)", "ENDPOINT RESULT": 5.7}
{"COMPOUND": "CC1=C(C(=O)Nc2ccc3[nH]ncc3c2)C(c2ccc3ccccc3c2)CC(=O)N1 (stereo unspecified)", "MEASURED TARGET": "Insulin receptor (Homo sapiens)", "ENDPOINT RESULT": 4.67}
{"COMPOUND": "O=C(Nc1n[nH]c2nc(-c3ccco3)c(Br)cc12)C1CC1", "MEASURED TARGET": "Insulin receptor (Homo sapiens)", "ENDPOINT RESULT": 3.98}
{"COMPOUND": "COc1cc(C=NNc2ncnc3c2cnn3-c2ccccc2)ccc1O", "MEASURED TARGET": "Insulin receptor (Homo sapiens)", "ENDPOINT RESULT": 3.42}
{"COMPOUND": "CCn1c(-c2nonc2N)nc2c(C#CC(C)(C)O)nc(OC[C@@H](N)c3ccccc3)cc21", "MEASURED TARGET": "Insulin receptor (Homo sapiens)", "ENDPOINT RESULT": -0.22}
{"COMPOUND": "CCN1CCC(CC(=O)Nc2n[nH]c3nc(-c4cccs4)c(Br)cc23)CC1", "MEASURED TARGET": "Insulin receptor (Homo sapiens)", "ENDPOINT RESULT": -0.61}
{"COMPOUND": "NCc1ccc(-c2nc(-c3ccc(Cl)c(O)c3)c(-c3ccncc3)[nH]2)cc1", "MEASURED TARGET": "Insulin receptor (Homo sapiens)", "ENDPOINT RESULT": 0.74}

Source listed as ChEMBL document CHEMBL1961873.
